experiment: qHTS assay to identify small molecule agonists of the estrogen related receptor (ERR) signaling pathway from Tox21 library (AID 1224849); settings: ERR reporter cell line, ONE-Glo luciferase, 18 h; at 92.4 µM (top of the series) unless noted; further: on the % scale 0 is the no-effect control and ±100 the full control effect; nearly all actives have a fitted effect of over 15% in size
Active and inactive are the calls of the source. The call rests on the fitted dose curve.
outcome-measure: activity change, positive = activation

Please review the entries below; each comes with its answer.
What value of activity change, positive = activation has been reported for the following compound? `CC(=O)CC(C)C`
1.24% (inactive)

What value of activity change, positive = activation has been reported for the following compound? `CC(C)(CC(=O)O)C(=O)O`
3.63% (inactive)

What value of activity change, positive = activation has been reported for the following compound? `OCCOc1ccc(OCCO)cc1`
2.76% (inactive)

What value of activity change, positive = activation has been reported for the following compound? CCCCC(CC)COC(=O)c1ccccc1O (centres undefined)
5.6% [at 42.5 µM] (inactive)

What value of activity change, positive = activation has been reported for the following compound? `CCCCCOC(=O)CCCCC`
0.374% (inactive)

What value of activity change, positive = activation has been reported for the following compound? `COc1ccc2c(c1)CCCC2=O`
4.85% [at 42.5 µM] (inactive)

What value of activity change, positive = activation has been reported for the following compound? `CN(C)CCCNCCCN(C)C`
-4.23% (inactive)

What value of activity change, positive = activation has been reported for the following compound? `CCc1ccc(O)c(OC)c1`
4.86% (inactive)

Now for a further compound.
What value of activity change, positive = activation has been reported for the following compound? C=COCC1CCC(CO)CC1 (centres undefined)
2.36% (inactive)
